test system: RXF 393 renal; assay: NCI-60 one-dose screen, 48 h; conditions: 10 µM unless noted
This is part of a sample that, as a whole, favours compounds with a hit. Of some 83,000 tested, about 20% had one in any assay. The source made the active and inactive calls. The calls were made as follows: active = growth percent below 10; inactive = the rest.
Possible outcomes: active, inactive

{"columns": ["smiles-record", "label-value"],
 "data": [
  ["CCNCCCn1c2c(c3cc(OC)c(OC)cc3c1=O)C(=O)c1cc(OC)cnc1-2", "inactive"],
  ["CN1C(=O)/C(=C/C=C/c2ccco2)SC1=S", "active"],
  ["CC(=O)c1sc(Nc2cccc(Nc3nc(C)c(C)s3)c2)nc1C", "inactive"],
  ["CCC(=O)Nc1cc(Nc2cc(NC3CC3)n3ncc(C#N)c3n2)ccc1C", "active"],
  ["O=C1Nc2ccc(Cl)cc2/C1=C/c1ccc(OCc2ccc(F)cc2)cc1", "inactive"],
  ["O=c1cc(-c2ccccc2)nc2sc(-c3c[nH]c4ccc(Br)cc34)nn12", "inactive"],
  ["COc1cc(-c2noc(C[C@@H](NC(=O)OCc3ccccc3)C(C)C)n2)cc(OC)c1OC", "inactive"],
  ["CN(c1ccc(F)cc1)S(=O)(=O)c1ccc(-c2cnc(C3CC3)o2)cc1", "active"],
  ["CN(C)c1ccc(/C=N/Nc2nc(N/N=C/c3ccc(N(C)C)cc3)nc(N3CCOCC3)n2)cc1", "inactive"],
  ["CS(=O)(=O)c1nccc(-c2c(-c3ccc(F)c(OCc4ccc(F)cc4)c3)nc3sccn23)n1", "inactive"],
  ["CCn1c2ccc(/C=N/NS(=O)(=O)CCN(C)C)cc2c2cc(/C=N/NS(=O)(=O)CCN(C)C)ccc21", "inactive"],
  ["Oc1ccc(CSc2nnc(-c3ccc(Br)cc3)n2-c2ccccc2)c2cccnc12", "inactive"],
  ["O=C(/C=C/c1cccc(O)c1)c1ccc(O)cc1", "inactive"],
  ["Cc1nn(-c2ccc(Br)cc2)c2nc(CCl)[nH]c(=O)c12", "inactive"],
  ["CCCCCCCCNC(=O)c1ccc(Cn2c(CCCC)nc3c(N)nc4ccccc4c32)cc1", "inactive"],
  ["CCOc1c(C#N)c(Nc2ccc(S(N)(=O)=O)cc2)c(C#N)c2nnc(C)n12", "inactive"],
  ["Cc1csc(Nc2cccc(Nc3nc(C)cs3)c2)n1", "inactive"],
  ["CCCCCCNC(=O)Oc1ccc(/C(=C(/C)c2ccc(OC)cc2)c2ccc(OCCN3CCCC3)cc2)cc1", "inactive"],
  ["COC(=O)c1nc(-c2ccc(C)cc2)oc1S(=O)(=O)N1CCN(c2oc(-c3ccccc3)nc2C#N)CC1", "inactive"],
  ["O=C(N/N=C\\c1ccc(Cl)cc1)c1ccc2nc(-c3ccc(Br)cc3)[nH]c2c1", "active"]
]}

====

test system: NCI-H322M lung; test: NCI-60 one-dose screen, 48 h; details: 10 µM unless noted
This is part of a sample that, as a whole, favours compounds with a hit. Of some 83,000 tested, about 20% had one in any assay. The source made the active and inactive calls. How the source made its calls: active means growth percent below 10; inactive means the rest.
Outcomes: active, inactive

{"columns": ["compound", "label-value"],
 "data": [
  ["CN(C)C(=O)c1ccccc1-n1cnc2ccccc2c1=O", "inactive"],
  ["CC1OC(O[C@@H]2[C@H](O)C(CO)OC(O[C@H]3COC(O[C@H]4CC[C@]5(C)[C@H]6CC[C@]78OC[C@@]9(CC[C@](C)(C=O)C[C@H]97)C(=O)C[C@@]8(C)[C@]6(C)CC[C@H]5C4(C)C)[C@@H](O)[C@@H]3O)[C@H]2OC2OC[C@@H](O)[C@@H](O)[C@@H]2O)[C@@H](O)[C@@H](O)[C@H]1O (some centres not stated)", "inactive"],
  ["Cc1ccc(/C=C/c2nn3c(-c4ccco4)nnc3s2)cc1", "inactive"],
  ["COc1ccc(-c2nc(SCCC(C)C)nc(N/N=C\\c3ccc(O)cc3)c2C#N)cc1", "inactive"],
  ["IP(CCCCCCCCCCSc1n(Cc2ccc3ccccc3c2)c(-c2ccccc2)c(-c2ccccc2)[n+]1Cc1ccc2ccccc2c1)(c1ccccc1)(c1ccccc1)c1ccccc1", "active"],
  ["C=C(C)[C@@H]1CC[C@]2(COS(C)(=O)=O)CC[C@]3(C)[C@H](CC[C@@H]4[C@@]5(C)CCCNC(C)(C)[C@@H]5CC[C@]43C)[C@@H]12", "inactive"],
  ["COc1cc2cc(Oc3ccc(NC(=O)Nc4cccc(C(F)(F)F)c4)cc3)c(C)nc2cc1OCCN(C)C", "inactive"]
]}

====

Tested on: TK-10 renal
Experiment: NCI-60 one-dose screen, 48 h (100 = growth as untreated, 0 = no growth, -100 = all killed)
Settings: 10 µM unless noted
Method: Growth inhibition of the TK-10 human tumor cell line is measured as a screen for anti-cancer activity. Cells are grown in 96 well plates and exposed to the test compound for 48 hours. Compounds are tested at a single concentration, which is 10^-5 M for most compounds. The reported endpoint is percent growth (GI% or GIPRCNT), where numbers from 0 - 100% represent growth inhibition, and numbers from -100% - 0 represent cell death. For example, a value of 40 represents 60% growth inhibition. […]
About 83,000 compounds went through this panel and 20% of them were active in at least one assay; those are over-represented in the sample as a whole.
growth overview

{"columns": ["smiles-record", "growth, %"],
 "data": [
  ["COc1cc2cc(Oc3ccc(NC(=O)Nc4cccc(C(F)(F)F)c4)cc3)c(C)nc2cc1OCCN(C)C", 110],
  ["CN(C)c1ccc(/C=N/Nc2nc(N/N=C/c3ccc(N(C)C)cc3)nc(N3CCOCC3)n2)cc1", 110],
  ["CNC(=O)c1c(NC(=O)c2ccc(F)cc2F)sc2c1CCC(=O)C2", 38.7],
  ["CNC(=O)c1cc(Oc2ccc3nc(NC(=O)c4cc(C)cc(C)c4)sc3c2)ccn1", 78.5],
  ["N#Cc1c(NC(=O)c2ccc(F)c(Cl)c2)sc2c1CCC(=O)C2", 15.3]
]}

====

test system: UO-31 renal; assay: NCI-60 one-dose screen, 48 h (100 = growth as untreated, 0 = no growth, -100 = all killed); details: 10 µM unless noted
The panel holds about 83,000 compounds, 20% with a hit somewhere; the sample as a whole holds those more often.
measured-property: growth (%)

{"columns": ["compound", "measured-property", "observed-result"],
 "data": [
  ["Cc1[nH]nc2ccc(-c3nc4cnc(N5CCN(C)CC5)cn4c3Nc3ccc(F)cc3Br)cc12", "growth", 50.4],
  ["Cc1nn(-c2ccc(Br)cc2)c2nc(CCl)[nH]c(=O)c12", "growth", -90.1],
  ["CCCCCCNC(=O)Oc1ccc(/C(=C(/C)c2ccc(OC)cc2)c2ccc(OCCN3CCCC3)cc2)cc1", "growth", 38.7],
  ["C(=C(\\C1=NCCN1)n1cnc2ccccc21)/c1ccc2ccccc2c1", "growth", 68],
  ["CN1C(=O)/C(=C/C=C/c2ccco2)SC1=S", "growth", 58.3],
  ["CC1CCN(S(=O)(=O)c2ncsc2-c2ccccc2)CC1", "growth", 86.9],
  ["COc1cc(/C=C/C(=O)c2ccc(NC(=O)CSc3nnc(-c4ccc5nc(-c6ccccc6)[nH]c5c4)o3)cc2)cc(OC)c1OC", "growth", 89.4],
  ["CCCCCCNC(=O)Oc1ccc(/C(=C(/C)c2ccc(Cl)cc2)c2ccc(OCCN3CCCC3)cc2)cc1", "growth", 18.1],
  ["CSc1nccc(-c2c(-c3ccc(F)c(OCc4ccc(F)cc4)c3)nc3sccn23)n1", "growth", 53.7],
  ["Cc1cccc(NC(c2cc3cccc4ccc5cccc2c5c43)c2nnnn2C(C)(C)C)c1C (stereo not given)", "growth", 66.9],
  ["COC1=C(c2ccccc2)C(=O)C(OC)=C(c2ccccc2)C1=O", "growth", 89.8],
  ["CC1=CC(=O)CC(C)(C)[C@@]1(O)/C=C/C(C)=C\\C(=O)O", "growth", -31.6],
  ["COc1cc2cc(Oc3ccc(NC(=O)c4cccc(C(F)(F)F)c4)cc3)c(C)nc2cc1OCCN(C)C", "growth", 84],
  ["COc1ccc2c(c1)c(-c1nn3c(=O)cc(-c4ccccc4)nc3s1)cn2C", "growth", 38.1],
  ["CCOC(=O)/C(F)=C/C1CC1CCc1cccc(C(F)(F)F)c1 (stereo not given)", "growth", 90.4],
  ["C=C1C(=O)O[C@@H]2C[C@@H](C)CCC(=O)[C@](C)(OC(C)=O)C[C@H](OC(=O)/C(C)=C\\C)[C@@H]12", "growth", 85.4],
  ["CC(=O)Nc1ccc(C)c(Nc2cc(-c3ccc(-n4cccn4)cc3)[nH]n2)c1", "growth", 60.6],
  ["O=C(Nc1cc(Cl)cc(Cl)c1)Nc1ccc2oc(=O)ccc2c1", "growth", 3.75],
  ["C=CCn1c(SCC(=O)Nc2cccc(C(=O)/C=C/c3ccc(C)cc3)c2)nc2ccccc2c1=O", "growth", 63.9],
  ["COc1cc2oc(-c3cccc(NC(=O)c4cc(NC(=O)[C@H](C)NC(=O)OC(C)(C)C)ccc4C)c3)cc(=O)c2c(OC)c1OC", "growth", 36.3]
]}

Taken from PubChem BioAssay (NCI).
